# System: MCF-7 cell line
# PROTOCOL: MTT cytotoxicity test, MCF-7 cell line
# Type: cell-based
# TEST SETTINGS: Homo sapiens, MCF7, read-out: IC50 (μM) MCF-7
Reported IC50 values follow for various compounds

Recorded IC50, per entry:
[[record]]
compound = "COc1ccc(C(=O)Nc2nnc(SCC(=O)Nc3ccc(Cl)cc3)s2)cc1 [3t]"
measured_target = "MCF-7 cell line"
result = "> 100 µM"

[[record]]
compound = "O=C(CSc1nnc(NC(=O)c2ccc(Cl)c(Cl)c2)s1)Nc1ccc(C(F)(F)F)cc1 [3b]"
measured_target = "MCF-7 cell line"
result = "> 100 µM"

[[record]]
compound = "O=C(CSc1nnc(NC(=O)c2ccc(Cl)c(Cl)c2)s1)Nc1ccc(Cl)cc1 [3d]"
measured_target = "MCF-7 cell line"
result = "> 100 µM"

[[record]]
compound = "O=C(CSc1nnc(NC(=O)c2ccc(F)cc2)s1)Nc1ccccc1 [3k]"
measured_target = "MCF-7 cell line"
result = "> 100 µM"

[[record]]
compound = "O=C(CSc1nnc(NC(=O)c2ccc(F)cc2)s1)Nc1ccc(Cl)cc1 [3n]"
measured_target = "MCF-7 cell line"
result = "> 100 µM"

[[record]]
compound = "O=C(CSc1nnc(NC(=O)c2ccc(Cl)c(Cl)c2)s1)Nc1ccccc1 [3a]"
measured_target = "MCF-7 cell line"
result = "> 100 µM"

[[record]]
compound = "O=C(CSc1nnc(NC(=O)c2ccc(Cl)cc2)s1)Nc1ccccc1 [3f]"
measured_target = "MCF-7 cell line"
result = "> 100 µM"


Now let's try a different one.
Qu. IC50 lookup needed for COc1ccc(C(=O)Nc2nnc(SCC(=O)Nc3ccccc3)s2)cc1 [3p] , thanks.
Ans. > 100 µM

###

# MEASURED TARGET: COX-2 enzyme (Homo sapiens)
# Sequence (P35354 18-604): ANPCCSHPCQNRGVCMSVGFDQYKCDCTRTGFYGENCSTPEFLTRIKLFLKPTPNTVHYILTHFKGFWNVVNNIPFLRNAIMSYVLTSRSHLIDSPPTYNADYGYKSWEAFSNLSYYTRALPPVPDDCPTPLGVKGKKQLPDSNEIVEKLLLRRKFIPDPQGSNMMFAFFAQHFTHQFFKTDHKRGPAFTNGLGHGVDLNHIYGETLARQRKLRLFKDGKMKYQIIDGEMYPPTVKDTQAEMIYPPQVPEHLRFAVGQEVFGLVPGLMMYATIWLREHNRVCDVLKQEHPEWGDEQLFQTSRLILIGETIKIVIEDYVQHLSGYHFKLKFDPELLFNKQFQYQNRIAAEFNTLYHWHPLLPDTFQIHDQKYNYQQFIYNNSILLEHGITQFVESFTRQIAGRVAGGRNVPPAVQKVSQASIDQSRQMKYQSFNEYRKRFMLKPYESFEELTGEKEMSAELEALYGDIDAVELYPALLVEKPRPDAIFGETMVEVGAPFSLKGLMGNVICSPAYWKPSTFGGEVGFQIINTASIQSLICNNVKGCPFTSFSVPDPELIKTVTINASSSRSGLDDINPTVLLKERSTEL
# PROTOCOL: biochemical
pIC50: −log10 of the molar value.
Recorded pIC50 values for a group of compounds are listed next.

# example entries with known answers
[[record]]
given_smiles = "O=C(CSc1nnc(NC(=O)c2ccc(Cl)cc2)s1)Nc1ccc(C(F)(F)F)cc1"
result = "< 4.00"

[[record]]
given_smiles = "O=C(CSc1nnc(NC(=O)c2ccc(Cl)c(Cl)c2)s1)Nc1ccc(C(F)(F)F)cc1"
result = "< 3.00"


Qu. // pIC50 lookup, key: "COc1ccc(C(=O)Nc2nnc(SCC(=O)Nc3ccccc3)s2)cc1"
Ans. < 3.00

Reference for the values: paper PMC12756739
